Each item that follows carries a reported viability at 24 h, 50 µM.
Experiment: alamar Blue viability assay
Type: cell-based
Conditions: human, PANC-1 cells (pancreatic carcinoma); PANC-1, 50 μM, 24 hours, vs DMSO
# unit: % | format: bare number

1) O=C1C=Cc2c(c(-c3ccccc3)cn2S(=O)(=O)c2cccc(F)c2)C1=O 20
2) COc1ccc(-c2cn(S(=O)(=O)c3ccccc3)c3c2C(=O)C(=O)C=C3)cc1 32
3) O=C1C=Cc2c(c(-c3ccccc3)cn2S(=O)(=O)c2cccc([N+](=O)[O-])c2)C1=O 20

Find the measured viability at 24 h, 50 µM of O=C1C=Cc2c(c(-c3ccccc3)cn2S(=O)(=O)c2ccc(F)cc2)C1=O and report it.
29

Supply recorded viability at 24 h, 50 µM for O=C1C=Cc2c(c(-c3ccccc3)cn2S(=O)(=O)c2ccc([N+](=O)[O-])cc2)C1=O here.
36

###

Measured viability at 24 h, 10 µM by item
Test: alamar Blue viability assay
Assay type: cell-based
Conditions: human, MDA-MB-231 cells (metastatic breast cancer); MDA-MB-231, 10 μM, 24 hours, vs DMSO
In your response, put the unit directly after the numeric value.

Solved entries (count: 4):
1. O=C1C=Cc2c(c(-c3ccccc3)cn2S(=O)(=O)c2cccc([N+](=O)[O-])c2)C1=O 94%
2. O=C1C=Cc2c(c(-c3ccccc3)cn2S(=O)(=O)c2cccc(F)c2)C1=O 103%
3. O=C1C=Cc2c(c(-c3ccccc3)cn2S(=O)(=O)c2ccc([N+](=O)[O-])cc2)C1=O 104%
4. COc1ccc(-c2cn(S(=O)(=O)c3ccccc3)c3c2C(=O)C(=O)C=C3)cc1 106%

Now, please, on to the next compound.
Give recorded viability at 24 h, 10 µM. O=C1C=Cc2c(c(-c3ccccc3)cn2S(=O)(=O)c2ccc(F)cc2)C1=O
103%

###

Target: HuR-mRNA interaction (Homo sapiens)
Sequence (Q15717 whole entry): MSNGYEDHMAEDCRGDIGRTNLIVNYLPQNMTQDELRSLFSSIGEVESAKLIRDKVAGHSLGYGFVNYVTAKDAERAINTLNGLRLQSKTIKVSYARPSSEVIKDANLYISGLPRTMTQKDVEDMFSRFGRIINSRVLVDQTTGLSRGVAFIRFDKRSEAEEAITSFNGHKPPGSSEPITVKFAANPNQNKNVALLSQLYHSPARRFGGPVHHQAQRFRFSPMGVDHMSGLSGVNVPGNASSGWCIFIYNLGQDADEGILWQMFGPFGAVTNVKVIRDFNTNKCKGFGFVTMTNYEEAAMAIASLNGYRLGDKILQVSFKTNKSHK
Assay: AlphaScreen assay, inhibition of HuR-mRNA interaction
Conditions: 1-site competition model, RNA 50 nM, Kd 2.5 nM, read-out: Complete Ki
propertyMeasured: pKi
Convention used: pKi is expressed as -log10 of the molar concentration.

Dear colleague, please send me the reported pKi for Cc1cccc2c3c(ccc12)C1=C(C(=O)C3=O)[C@@H](C)CO1 [DHTS, Dihydrotanshinone, reference compound] when you can.
8.43

###

Assay: alamar Blue viability assay
Format: cell-based
Details: human, MCF7 cells (breast cancer); MCF7, 10 μM, 24 hours, vs DMSO
Entries annotated with measured viability at 24 h, 10 µM
// units = %; emit number, no label

molecule	unitsOfMeasure	viability at 24 h, 10 µM
O=C1C=Cc2c(c(-c3ccccc3)cn2S(=O)(=O)c2cccc([N+](=O)[O-])c2)C1=O [Compound 24]	%	100
COc1ccc(-c2cn(S(=O)(=O)c3ccccc3)c3c2C(=O)C(=O)C=C3)cc1 [Compound 28]	%	91
O=C1C=Cc2c(c(-c3ccccc3)cn2S(=O)(=O)c2ccc(F)cc2)C1=O [Compound 25]	%	100

Fill in reported viability at 24 h, 10 µM for this entry: O=C1C=Cc2c(c(-c3ccccc3)cn2S(=O)(=O)c2ccc([N+](=O)[O-])cc2)C1=O [Compound 23]
100

Output measured viability at 24 h, 10 µM for this item: O=C1C=Cc2c(c(-c3ccccc3)cn2S(=O)(=O)c2cccc(F)c2)C1=O [Compound 27]
108

###

Assay: alamar Blue viability assay
Type: cell-based
Conditions: human, MDA-MB-231 cells (metastatic breast cancer); MDA-MB-231, 50 μM, 24 hours, vs DMSO
Measured viability at 24 h, 50 µM of individual entries
Hi! Could you send only the number? It should be in %, unit omitted.

1. O=C1C=Cc2c(c(-c3ccccc3)cn2S(=O)(=O)c2ccc([N+](=O)[O-])cc2)C1=O 80

Report viability at 24 h, 50 µM for O=C1C=Cc2c(c(-c3ccccc3)cn2S(=O)(=O)c2cccc(F)c2)C1=O
51

Give viability at 24 h, 50 µM for the following compound: COc1ccc(-c2cn(S(=O)(=O)c3ccccc3)c3c2C(=O)C(=O)C=C3)cc1
57

Determine its reported viability at 24 h, 50 µM: O=C1C=Cc2c(c(-c3ccccc3)cn2S(=O)(=O)c2cccc([N+](=O)[O-])c2)C1=O
36

Entry O=C1C=Cc2c(c(-c3ccccc3)cn2S(=O)(=O)c2ccc(F)cc2)C1=O needs its viability at 24 h, 50 µM filled in; supply it.
50

###

Test: alamar Blue viability assay
Assay type: cell-based, human
Details: human, THP-1 cells (monocytic leukemia); THP1, 10 μM, 24 hours, vs DMSO
Experimental: Tumor cell lines of metastatic breast cancer (MDA-MB-231), breast cancer (MCF7), human monocytic leukemia (THP-1) and pancreatic carcinoma (PANC-1) have been cultured in a complete DMEM or RPMI 1640 (Gibco Life Technologies) supplemented with 10% fetal bovine serum (FBS, Lonza), 2 mM L-glutamine and 100 U/ml penicillin-streptomycin (Lonza). The cell lines have been cultured at 37° C. in 5% CO2 and have been regularly tested for Mycoplasma contamination. […]
# reported viability at 24 h, 10 µM; entries follow
Answer with a number only, understood to be in %.

Recorded viability at 24 h, 10 µM, per entry:
compound	unitsOfMeasure	testValue
O=C1C=Cc2c(c(-c3ccccc3)cn2S(=O)(=O)c2cccc([N+](=O)[O-])c2)C1=O [Compound 24]	%	100
O=C1C=Cc2c(c(-c3ccccc3)cn2S(=O)(=O)c2ccc(F)cc2)C1=O [Compound 25]	%	100
O=C1C=Cc2c(c(-c3ccccc3)cn2S(=O)(=O)c2cccc(F)c2)C1=O [Compound 27]	%	83
COc1ccc(-c2cn(S(=O)(=O)c3ccccc3)c3c2C(=O)C(=O)C=C3)cc1 [Compound 28]	%	105

Kindly consider the entry below.
Please report viability at 24 h, 10 µM for the following compound: O=C1C=Cc2c(c(-c3ccccc3)cn2S(=O)(=O)c2ccc([N+](=O)[O-])cc2)C1=O [Compound 23]
98

###

Experiment: alamar Blue viability assay
Type: cell-based
Settings: human, PANC-1 cells (pancreatic carcinoma); PANC-1, 10 μM, 24 hours, vs DMSO
propertyMeasured: viability at 24 h, 10 µM (%)
Value expressed in %; do not type the unit.

1) O=C1C=Cc2c(c(-c3ccccc3)cn2S(=O)(=O)c2cccc(F)c2)C1=O 102
2) O=C1C=Cc2c(c(-c3ccccc3)cn2S(=O)(=O)c2ccc(F)cc2)C1=O 100
3) COc1ccc(-c2cn(S(=O)(=O)c3ccccc3)c3c2C(=O)C(=O)C=C3)cc1 90
4) O=C1C=Cc2c(c(-c3ccccc3)cn2S(=O)(=O)c2cccc([N+](=O)[O-])c2)C1=O 91

Please examine the following record next.
In one line, give reported viability at 24 h, 10 µM of the entry O=C1C=Cc2c(c(-c3ccccc3)cn2S(=O)(=O)c2ccc([N+](=O)[O-])cc2)C1=O .
92

###

Target: HuR-mRNA interaction (Homo sapiens)
Assay: AlphaScreen assay, inhibition of HuR-mRNA interaction
Conditions: rHuR and biotinylated RNA probe
propertyMeasured: pIC50
Note on units: pIC50 is unitless, being -log10 of a concentration expressed in mol/L.

compound	systemName	propertyMeasured	testValue
O=C1C=Cc2c(c(-c3ccccc3)cn2S(=O)(=O)c2cccc(F)c2)C1=O	HuR-mRNA interaction (Homo sapiens)	pIC50	6.60
O=C1C(=O)c2c(-c3ccccc3)cn(S(=O)(=O)c3ccccc3)c2C2=C1C1CCC2CC1	HuR-mRNA interaction (Homo sapiens)	pIC50	6.92
O=C1C=Cc2c(c(-c3ccccc3)cn2S(=O)(=O)c2cccc([N+](=O)[O-])c2)C1=O	HuR-mRNA interaction (Homo sapiens)	pIC50	6.47

Find the measured pIC50 of COc1ccc(-c2cn(S(=O)(=O)c3ccccc3)c3c2C(=O)C(=O)C=C3)cc1 with HuR-mRNA interaction (Homo sapiens) as test system.
6.54

Recall the reported pIC50 of O=C1C=Cc2c(c(-c3ccccc3)cn2S(=O)(=O)c2ccc([N+](=O)[O-])cc2)C1=O when tested on HuR-mRNA interaction (Homo sapiens).
6.62

# assay system HuR-mRNA interaction (Homo sapiens): give pIC50 of COc1cccc(-c2cn(S(=O)(=O)c3ccccc3)c3c2C(=O)C(=O)C=C3)c1
6.45

Tell me pIC50 of Cc1cccc2c3c(ccc12)C1=C(C(=O)C3=O)[C@@H](C)CO1 [DHTS, Dihydrotanshinone, reference compound] when tested on HuR-mRNA interaction (Homo sapiens).
6.83

###

Experiment: alamar Blue viability assay
Format: cell-based
Details: human, MCF7 cells (breast cancer); MCF7, 50 μM, 24 hours, vs DMSO
propertyMeasured: viability at 24 h, 50 µM (%)
Numbers only here, please. The scale is %.

1. O=C1C=Cc2c(c(-c3ccccc3)cn2S(=O)(=O)c2ccc([N+](=O)[O-])cc2)C1=O 66
2. COc1ccc(-c2cn(S(=O)(=O)c3ccccc3)c3c2C(=O)C(=O)C=C3)cc1 75
3. O=C1C=Cc2c(c(-c3ccccc3)cn2S(=O)(=O)c2cccc(F)c2)C1=O 79
4. O=C1C=Cc2c(c(-c3ccccc3)cn2S(=O)(=O)c2cccc([N+](=O)[O-])c2)C1=O 54

With those in mind, consider the next compound.
Given the compound O=C1C=Cc2c(c(-c3ccccc3)cn2S(=O)(=O)c2ccc(F)cc2)C1=O , write its reported viability at 24 h, 50 µM.
63
